# Assayed target: human 5-HT2C receptor (Homo sapiens, UniProt P28335)
# Sequence (P28335 33-458): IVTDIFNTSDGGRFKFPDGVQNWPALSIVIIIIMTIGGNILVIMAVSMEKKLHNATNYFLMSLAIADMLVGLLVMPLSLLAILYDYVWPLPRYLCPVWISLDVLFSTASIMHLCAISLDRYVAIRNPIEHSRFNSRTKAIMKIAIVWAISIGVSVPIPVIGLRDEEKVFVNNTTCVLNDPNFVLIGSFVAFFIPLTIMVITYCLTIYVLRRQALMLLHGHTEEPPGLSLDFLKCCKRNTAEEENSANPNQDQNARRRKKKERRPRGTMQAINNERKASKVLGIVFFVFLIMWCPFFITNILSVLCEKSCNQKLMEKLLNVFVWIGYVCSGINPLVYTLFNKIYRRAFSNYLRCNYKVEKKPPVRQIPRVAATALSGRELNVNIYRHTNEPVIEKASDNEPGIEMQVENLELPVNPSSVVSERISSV
# Assay remarks: 5-HT2C receptor-stimulated calcium mobilization (FLIPR) in CHO cells
# Format: cell-based
# Run conditions: CHO, read-out: 5-HT2C Function Emax (%)
Hi! Could you tag entries with Emax below 80% as Criterion met, and those at or above as Criterion not met? Much appreciated.

> print(dat)
                                   compound     discrete.label
1  c1cc2c3c(c1)[C@H]1CCC[C@H]1N3CCNCC2 (single isomer, unassigned)      Criterion met
2  Clc1ccc2c3c1CCNCCN3C1CCCCCC21 (stereo not shown)      Criterion met
3             Fc1ccc2c3c1c1c(n3CCNCC2)CCCC1  Criterion not met
4       CN1CCc2ccc(Cl)c3c4c(n(c23)CC1)CCCC4      Criterion met
5           CN1CCc2cccc3c4c(n(c23)CC1)CCCC4      Criterion met
6  c1cc2c3c(c1)[C@H]1CCCC[C@H]1N3CCNCC2 (single isomer, unassigned)      Criterion met
7  CN1CCc2ccc(Cl)c3c2N(CC1)C1CCCCC31 (stereo not shown)      Criterion met
8           c1cc2c3c(c1)c1c(n3CCNCC2)CCCCC1  Criterion not met

###

# Assayed target: human 5-hydroxytryptamine-2C (h-5-HT2C) receptor (Homo sapiens, UniProt P28335)
# Sequence (P28335 33-458): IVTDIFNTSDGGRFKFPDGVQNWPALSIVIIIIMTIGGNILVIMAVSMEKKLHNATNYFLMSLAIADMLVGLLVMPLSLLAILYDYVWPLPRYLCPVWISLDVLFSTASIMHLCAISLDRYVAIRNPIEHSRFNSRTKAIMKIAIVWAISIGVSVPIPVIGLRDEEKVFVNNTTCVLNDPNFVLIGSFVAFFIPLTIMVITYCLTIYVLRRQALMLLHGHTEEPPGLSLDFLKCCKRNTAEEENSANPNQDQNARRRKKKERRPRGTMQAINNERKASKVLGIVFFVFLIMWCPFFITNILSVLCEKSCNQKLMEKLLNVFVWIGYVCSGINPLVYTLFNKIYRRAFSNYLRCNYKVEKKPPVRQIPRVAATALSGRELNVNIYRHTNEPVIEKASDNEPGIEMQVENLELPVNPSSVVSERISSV
# Assay remarks: [125I]DOI binding to membranes of CHO cells expressing the h-5-HT2C receptor
# Run conditions: 5-HT2c Affinity KI (nM), displacement of [125I]DOI, CHO cell membranes
Decide using Ki alone. Strictly below 50 nM: criterion met. Equal to or above 50 nM: criterion not met.

> print(dat)
                                   molecule     discrete.label
1  Clc1ccc2c3c1[C@H]1CCCC[C@H]1N3CCNCC2 (single isomer, unassigned) [Example 42]      criterion met
2  c1cc2c3c(c1)[C@H]1CCCC[C@H]1N3CCNCC2 (single isomer, unassigned) [Example 47]  criterion not met
3  CN1CCc2ccc(Cl)c3c2N(CC1)C1CCCCC31 (centres unmarked) [Example 37]      criterion met
4  CN1CCc2cccc3c2N(CC1)C1CCCCC31 (centres unmarked) [Example 7]      criterion met
5  c1cc2c3c(c1)[C@H]1CCCC[C@H]1N3CCNCC2 (single isomer, unassigned) [Example 48]      criterion met
6  CN1CCc2ccc(F)c3c4c(n(c23)CC1)CCC4 [Example 24]  criterion not met
7  CN1CCc2ccc(Cl)c3c2N(CC1)C1CCCC31 (centres unmarked) [Example 36]      criterion met

###

# Assayed target: human 5-HT2C receptor (Homo sapiens, UniProt P28335)
# Sequence (P28335 33-458): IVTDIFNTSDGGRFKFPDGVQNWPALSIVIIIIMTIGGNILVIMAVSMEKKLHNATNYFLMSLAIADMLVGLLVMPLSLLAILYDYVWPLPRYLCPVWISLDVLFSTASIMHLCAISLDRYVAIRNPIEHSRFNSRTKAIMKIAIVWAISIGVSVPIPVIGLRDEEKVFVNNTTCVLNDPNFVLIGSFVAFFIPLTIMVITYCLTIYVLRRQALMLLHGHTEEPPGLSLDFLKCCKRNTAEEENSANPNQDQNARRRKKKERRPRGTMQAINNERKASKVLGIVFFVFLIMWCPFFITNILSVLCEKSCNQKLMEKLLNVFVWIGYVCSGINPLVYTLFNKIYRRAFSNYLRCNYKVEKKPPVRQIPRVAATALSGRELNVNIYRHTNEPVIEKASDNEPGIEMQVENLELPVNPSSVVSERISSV
# Assay remarks: 5-HT2C receptor-stimulated calcium mobilization (FLIPR) in CHO cells
# Type: cell-based
# Run conditions: CHO, read-out: 5-HT2C Function Emax (%)
Measured metric: Emax

> print(dat)
                                   compound  result
1            c1cc2c3c(c1)c1c(n3CCNCC2)CCCC1     80%
2  Fc1ccc2c3c1C1CCCC1N3CCNCC2 (centres unmarked)     90%
3            Clc1ccc2c3c1c1c(n3CCNCC2)CCCC1     80%
4  CN1CCc2cccc3c2N(CC1)C1CCCCC31 (centres unmarked)     60%
5          CN1CCc2cccc3c4c(n(c23)CC1)CCCCC4     25%

###

# maps each entry to its pEC50
# Assayed target: human 5-HT2C receptor (Homo sapiens)
# Assay remarks: 5-HT2C receptor-stimulated calcium mobilization (FLIPR) in CHO cells
# Type: cell-based
pEC50: −log10 of the molar value.
Measured metric: pEC50

> print(dat)
                                   molecule                        assayed.target  measured.metric  result.number
1             c1cc2c3c(c1)c1c(n3CCNCC2)CCC1  human 5-HT2C receptor (Homo sapiens)            pEC50           7.70
2  c1cc2c3c(c1)C1CCCCC1N3CCNCC2 (centres unmarked)  human 5-HT2C receptor (Homo sapiens)            pEC50           7.74
3             Clc1ccc2c3c1c1c(n3CCNCC2)CCC1  human 5-HT2C receptor (Homo sapiens)            pEC50           7.06
4  CN1CCc2cccc3c2N(CC1)C1CCCC31 (centres unmarked)  human 5-HT2C receptor (Homo sapiens)            pEC50           7.43
5            Clc1ccc2c3c1c1c(n3CCNCC2)CCCC1  human 5-HT2C receptor (Homo sapiens)            pEC50           7.32
